experiment: Selectivity index, ratio of GI50 for human MCF7 cells to GI50 for EGFR over-expressing human MDA-MB-468 cells; assay type: functional
# Lookup of reported RatioGI50 keyed by entry
Property Label: RatioGI50

Smiles String: CC1CCN(c2ccnc(Nc3ccc(OCCCN4CCCCC4)cc3)n2)CC1
Property Label: RatioGI50
Bound Sign: =
Experimental Value: 4.4
//
Smiles String: CCN(CC)CCCOc1ccc(Nc2nccc(N3CCC(C)CC3)n2)cc1
Property Label: RatioGI50
Bound Sign: >
Experimental Value: 4.3
//
Smiles String: CCN(CC)c1ccnc(Nc2ccc(OCCCN3CCCCC3)cc2)n1
Property Label: RatioGI50
Bound Sign: =
Experimental Value: 1.6
//
Smiles String: CCN(CC)c1ccnc(Nc2ccc(OCCCN3CCSCC3)cc2)n1
Property Label: RatioGI50
Bound Sign: =
Experimental Value: 3.6
//
Smiles String: CC1CCN(c2ccnc(Nc3ccc(OCCCN4CCOCC4)cc3)n2)CC1
Property Label: RatioGI50
Bound Sign: >
Experimental Value: 1.8
//
Smiles String: ClC1CCN(c2ccnc(Nc3ccc(OCCCN4CCCCC4)cc3)n2)CC1
Property Label: RatioGI50
Bound Sign: >
Experimental Value: 2.6
//
Smiles String: c1cc(N2CCCCC2)nc(Nc2ccc(OCCCN3CCCCC3)cc2)n1
Property Label: RatioGI50
Bound Sign: >
Experimental Value: 3.3

----------
tested on: MDA-MB-468; test: Cytotoxicity against EGFR over-expressing human MDA-MB-468 cells assessed as cell viability at 10 uM after 48 hrs by MTT assay relative to control; assay type: functional; conditions: MDA-MB-468, 48 h, read-out: Activity

Smiles String: COc1cc2ncnc(Nc3ccc(F)c(Cl)c3)c2cc1OCCCN1CCOCC1
viability at 10 µM, %: 60.3

Smiles String: ClC1CCN(c2ccnc(Nc3ccc(OCCCN4CCOCC4)cc3)n2)CC1
viability at 10 µM, %: 61.6

Smiles String: c1cc(N2CCCCC2)nc(Nc2ccc(OCCCN3CCSCC3)cc2)n1
viability at 10 µM, %: 71.8

Smiles String: CN1CCN(c2ccnc(Nc3ccc(OCCCN4CCCCC4)cc3)n2)CC1
viability at 10 µM, %: 71.7

Smiles String: CCN(CC)c1ccnc(Nc2ccc(OCCCN3CCOCC3)cc2)n1
viability at 10 µM, %: 69.7
